Each entry below carries its reported cAMP production activity (%).
# experimental-target: human PTH1 receptor (Homo sapiens, UniProt Q03431)
# Sequence (Q03431 27-593): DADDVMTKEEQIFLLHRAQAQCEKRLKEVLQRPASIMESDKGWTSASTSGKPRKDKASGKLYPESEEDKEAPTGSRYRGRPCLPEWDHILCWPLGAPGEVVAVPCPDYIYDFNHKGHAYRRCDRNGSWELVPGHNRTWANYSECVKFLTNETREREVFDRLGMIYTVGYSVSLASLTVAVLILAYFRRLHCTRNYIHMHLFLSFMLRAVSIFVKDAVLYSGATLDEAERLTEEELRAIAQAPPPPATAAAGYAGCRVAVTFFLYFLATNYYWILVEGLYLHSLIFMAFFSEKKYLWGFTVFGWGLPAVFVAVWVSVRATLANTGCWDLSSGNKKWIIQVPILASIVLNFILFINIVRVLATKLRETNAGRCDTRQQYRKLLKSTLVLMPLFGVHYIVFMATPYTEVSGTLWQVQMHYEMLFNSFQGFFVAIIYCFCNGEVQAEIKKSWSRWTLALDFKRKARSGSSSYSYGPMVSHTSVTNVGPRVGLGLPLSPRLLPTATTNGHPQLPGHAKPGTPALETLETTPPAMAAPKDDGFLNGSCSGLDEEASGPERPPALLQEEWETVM
# protocol-description: In vitro cAMP signal activity in HKRK-B7 cells (LLC-PK1 cells overexpressing the human PTH1 receptor)
# Format: cell-based
# stated-conditions: HKRK-B7 cells; compound at 1×10^−3 M; cAMP produced as percentage of that produced by hPTH(1-34) at 100 nM
Please reply with the bare figure in % and do not write the unit itself.

INSERT INTO measurements (molecule, reported_measurement) VALUES
  ('Cc1cc(C(=O)N2CCC(O)CC2)cc(C)c1/C=C/S(=O)(=O)N1CCC2(CC1)N=C(c1ccc(F)c(C(F)(F)F)c1)NC2=O', 83),
  ('CCCCC1CCC(C2=NC3(CCN(S(=O)(=O)/C=C/c4c(C)cc(N5C(=O)CNC5=O)cc4C)CC3)C(=O)N2)CC1 (stereo not drawn)', 65),
  ('Cc1cc(N(C)C(N)=O)cc(C)c1CCS(=O)(=O)N1CCC2(CC1)N=C(c1cccc(-c3ccccc3-c3ccccc3)c1)NC2=O', 97);

The molecule listed as Cc1cc(C(=O)N2C[C@@H](C)N[C@@H](C)C2)cc(C)c1/C=C/S(=O)(=O)N1CCC2(CC1)N=C(c1ccc(F)c(C(F)(F)F)c1)NC2=O has a reported cAMP production activity (%) of 45

cAMP production activity (%) in this record for Cc1cc2ccc1CCS(=O)(=O)N1CCC3(CC1)N=C(NC3=O)c1cc(cc(C(F)(F)F)c1)OCCCCCCCCCN(C)C2=O : 49

For this molecule ( Cc1cc(C(=O)NN)cc(C)c1CCS(=O)(=O)N1CCC2(CC1)N=C(C1CCC(CCC(F)(F)F)CC1)NC2=O (stereo not drawn) ), measured cAMP production activity (%) is 92

* * *

# experimental-target: human PTH1 receptor (Homo sapiens, UniProt Q03431)
# protocol-description: In vitro cAMP signal activity in HKRK-B7 cells (LLC-PK1 cells overexpressing the human PTH1 receptor)
# Format: cell-based
# stated-conditions: HKRK-B7 cells; compound at 1×10^−3 M; cAMP produced as percentage of that produced by hPTH(1-34) at 100 nM
quantity-kind: cAMP production activity (%)
Respond with a number, then the unit of measure.

INSERT INTO assay_data (molecule, reported_measurement) VALUES
  ('Cc1cc(N(C)C(N)=O)cc(C)c1/C=C/S(=O)(=O)N1CCC2(CC1)N=C(c1cccc(OC(F)(F)C(F)F)c1)NC2=O', '109%'),
  ('CC(=O)N(CCO)c1ccc(C)c(CCS(=O)(=O)N2CCC3(CC2)N=C(c2cccc(OC(F)(F)F)c2)NC3=O)c1', '76%'),
  ('Cc1cc(N(C)C(N)=O)cc(C)c1CCS(=O)(=O)N1CCC2(CC1)N=C(c1ccc(Cl)c(C(F)(F)F)c1)NC2=O', '107%'),
  ('CC[C@H]1CC[C@H](C2=NC3(CCN(S(=O)(=O)CCc4ccc(N5C(=O)NC(=O)C5(C)C)cc4C)CC3)C(=O)N2)CC1', '58%'),
  ('Cc1cc(C(=O)N2CCC(O)CC2)cc(C)c1CCS(=O)(=O)N1CCC2(CC1)N=C(c1ccc3c(c1)OC(F)(F)O3)NC2=O', '109%'),
  ('O=C1NC(C2CCCCC2)=NC12CCN(S(=O)(=O)CC(O)c1cccc3c1ccn3C[C@H](O)CO)CC2 (stereo partly drawn)', '33%');

For Cc1cc(N(C)C(=O)CO)ccc1CCS(=O)(=O)N1CCC2(CC1)N=C(c1cccc(OC(F)(F)F)c1)NC2=O on human PTH1 receptor (Homo sapiens, UniProt Q03431), measured cAMP production activity (%) was 73%

Lab entry: human PTH1 receptor (Homo sapiens, UniProt Q03431) assay, molecule CCCCC1CCC(C2=NC3(CCN(S(=O)(=O)/C=C/c4c(C)cc(N(CCOCCO)C(C)=O)cc4C)CC3)C(=O)N2)CC1 (stereo not drawn) , cAMP production activity (%) = 62%

Entry Cc1cc(N(CCO)C(=O)NCCO)cc(C)c1/C=C/S(=O)(=O)N1CCC2(CC1)N=C(c1cccc(OC(F)(F)F)c1)NC2=O , human PTH1 receptor (Homo sapiens, UniProt Q03431) data, cAMP production activity (%) value: 80%

Field cAMP production activity (%) (human PTH1 receptor (Homo sapiens, UniProt Q03431)), entry Cc1cc(C(=O)N(C)C)ccc1CCS(=O)(=O)N1CCC2(CC1)N=C(C1CCOCC1)NC2=O : 23%
